target: GCGR extracellular domain (human, UniProt P47871); assay: SPR
Sequence (P47871 26-477): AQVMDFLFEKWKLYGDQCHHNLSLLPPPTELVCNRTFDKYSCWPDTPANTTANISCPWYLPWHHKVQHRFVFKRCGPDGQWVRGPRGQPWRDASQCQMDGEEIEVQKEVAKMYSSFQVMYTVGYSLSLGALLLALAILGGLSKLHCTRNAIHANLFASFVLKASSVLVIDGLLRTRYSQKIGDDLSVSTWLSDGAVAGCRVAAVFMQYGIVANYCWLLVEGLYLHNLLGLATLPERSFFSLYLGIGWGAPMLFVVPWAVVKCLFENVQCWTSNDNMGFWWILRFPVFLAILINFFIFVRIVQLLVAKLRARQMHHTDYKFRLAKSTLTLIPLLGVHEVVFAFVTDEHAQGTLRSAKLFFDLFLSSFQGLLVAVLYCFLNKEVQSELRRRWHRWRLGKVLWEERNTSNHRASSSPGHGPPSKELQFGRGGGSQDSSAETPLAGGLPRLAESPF
MEASURED PARAMETER: Kd
Number plus unit, in that order.

I would be grateful if you could share the reported Kd for VH Y30H (antibody, V domains shown) VH: EVQLVESGGGLVQPGGSLRLSCAASGFNIHYNYIHWVRQAPGKGLEWVAEFSPYSGSTYYADSVKGRFTISADTSKNTAYLQMNSLRAEDTAVYYCARSAAIVDWYDYFKGFDYWGQGTLVTVSS VL: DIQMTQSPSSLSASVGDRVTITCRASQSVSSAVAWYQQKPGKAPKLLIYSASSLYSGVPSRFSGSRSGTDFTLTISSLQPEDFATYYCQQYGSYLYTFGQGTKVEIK .
5.14 nM
